# Target Or Test System: HIV-1 integrase (Human immunodeficiency virus 1 (BH10), UniProt P03366 P03366:1160-1447)
# Measurement Description: FP filter; nitrocellulose filter; 250 mM NaCl
# Experimental Parameters: tags: gift of Agouron Pharmaceuticals; BH10 clone
Measurement Type: pKd
Recall that pKd is obtained by taking minus log10 of the concentration measured in molar.

Report pKd for P23 (ssRNA) RNA: GGGAGCUCAGAAUAAACGCUCAACCAGUCUUAUGGCGUUGCAAGAUAGGGGCGUUCGACAUGAGGCCCGGAUCCGGC please.
7.60
